Cited source: the supplement of paper PMC7125110

In this section, each of the variants is paired with its reported self-cleavage kobs at 2500 uM GlcN6P.
B1: glmS ribozyme (parent)
chain: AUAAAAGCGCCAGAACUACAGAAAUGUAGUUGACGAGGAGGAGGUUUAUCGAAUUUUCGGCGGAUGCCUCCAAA

- Variants of: B1
- Assay Comment: self-cleavage kobs at 2500 uM GlcN6P; higher = faster cleavage; RNA array
- Condition Label: with glucosamine-6-phosphate
Fewer inactive variants are shown than the library holds.

{"Sequence": "AUAAAAGCGCCAGAACUACAGAAAUGUAGUUGACGAGCAGUAGCUUUAUCGAAUUUUCGGCGGAUGCCUCCAAA [G38C G41U G44C]", "self-cleavage kobs at 2500 uM GlcN6P": "< 1e-05 s⁻¹"}
{"Sequence": "AUAAAAGCGCAAGGACUACAGAAAUGUAGUUGACGAGGAGUAGGUUUAUCCAAUUUUCGGCGGAUGCCUCCAAA [C11A A14G G41U G51C]", "self-cleavage kobs at 2500 uM GlcN6P": "< 1e-05 s⁻¹"}
{"Sequence": "AUAAAAGGGCCAGAACUACAGAAAUGUACUUGACGAGCAGGAGGUUUAUCGAAUUUCCGGCGGAUGCCUCCAAA [C8G G29C G38C U57C]", "self-cleavage kobs at 2500 uM GlcN6P": "< 1e-05 s⁻¹"}
{"Sequence": "AUAAAAGCGCAAGAACUACAGAAAUGUAGGUGACGAGGAGGAGGUUUAUCGAAGUUUCGGCGGAUGCCUCCAAA [C11A U30G U54G]", "self-cleavage kobs at 2500 uM GlcN6P": "0.000114 s⁻¹"}
{"Sequence": "AUAAAAGCGCCAGAACUACAGAAAUGUAGUUGACGUGGAGGCGGUUAAUCGAAUUUUCGGCGGAUGCCUCCAAA [A36U A42C U47A]", "self-cleavage kobs at 2500 uM GlcN6P": "< 1e-05 s⁻¹"}
{"Sequence": "AUAAAAGCGGCAGAACUACAGAAAUGUAGCUGACGAGCAGGAGGUUAAUCGAAUUUUCGGCGGAUGCCUCCAAA [C10G U30C G38C U47A]", "self-cleavage kobs at 2500 uM GlcN6P": "< 1e-05 s⁻¹"}
{"Sequence": "AUAAAAGCCCCAGAACUACAGAAAUGUAGUUGACGACGAGGUCGUUUAUUGAAUUUUCGGCGGAUGGCUCAAAA [G9C G37C A42U G43C C50U C67G C71A]", "self-cleavage kobs at 2500 uM GlcN6P": "< 1e-05 s⁻¹"}
{"Sequence": "AUAAAAGCGUCAGAACUACAGAAAUGUAGUUGACGAGGAGGACGUUUAUUGAAUUUUCGGCGGAUGCCUUCAAA [C10U G43C C50U C70U]", "self-cleavage kobs at 2500 uM GlcN6P": "< 1e-05 s⁻¹"}
{"Sequence": "AUAAAAGCGCGAGAACUACAGAAAUGUAGUUGUAGAGGAGAAGGUUUAUCGAAAUUUCGGCGGAUGCCUCCAAA [C11G A33U C34A G41A U54A]", "self-cleavage kobs at 2500 uM GlcN6P": "< 1e-05 s⁻¹"}
{"Sequence": "AUAAAAGCACCAAAACUACAGAAAUGUAGUUGACGAGGAGGAGGUUUAUCGAAUUUUCGGCGGAUGCCUCCAAA [G9A G13A]", "self-cleavage kobs at 2500 uM GlcN6P": "< 1e-05 s⁻¹"}
{"Sequence": "AUAAAAGCGCCAGAACUACAGAAAUGUAGUUGACGAGGAGGUGGUUUAUCGAACUUUCGGCGGAUGCCUACAAA [A42U U54C C70A]", "self-cleavage kobs at 2500 uM GlcN6P": "7.14e-05 s⁻¹"}
{"Sequence": "AUAAAGGCGCCAGAACUACAGAAAUGUAGUUGACGAGGAGGAGGUUUAUCGAAUUUUCGGCGGAAGCCUCCAAA [A6G U65A]", "self-cleavage kobs at 2500 uM GlcN6P": "4.41e-05 s⁻¹"}
{"Sequence": "AUAAAGGCGCCAGGACUACAGAAAUGUAGUUGACGAGGCGGAGGUUUAUCGAAUUUUCGGCGGAUGCCUCCAAA [A6G A14G A39C]", "self-cleavage kobs at 2500 uM GlcN6P": "9.9e-05 s⁻¹"}
